Please respond with reported Kd for every item in the list.
Test target: SARS-CoV-2 spike RBD (WT) (Severe acute respiratory syndrome …, UniProt P0DTC2)
Protocol: BLI
Answers are plain numbers, in nM.

Record excerpt, results attached:
Suppose we examine the binder C2721 (antibody, V domains shown) VH: EVQLVESGGGLIQPGGSLRLSCAASGFTVSSNYMSWVRQAPGKGLEWVSVIYSGGSTYYADSVKGRFTISRDNSKNTLYLQMNSLRAEDTAVYYCARDMGGDAFDIWGQGTMVTVSS VL: DIQLTQSPSFLSASVGDRVTITCRASQGISSYLAWYQQKPGKAPKLLIYAASTLQSGVPSRFSGSGSGTEFTLTISSLQPEDFATYYCQQLNSYPFFGGGTKVEIK ; what Kd value has been reported? 98.5

Suppose we examine the binder C2717 (antibody, V domains shown) VH: EVQLVESGGGLVQPGGSLRLSCAASGFTVSSNYMSWVRQAPGKGLEWVSVIYSGGSTYYADSVKGRFTISRDNSKNTLYLQMNSLRAEDTAVYYCARELYSSSSYFDYWGQGTLVTVSS VL: QSVLTQPPSVSGAPGQRVTISCTGSSSNIGAGYDVHWYQQLPGTAPKLLIYGNSNRPSGVPDRFSGSKSGTSASLAITGLQAEDEADYYCQSYDSSLSGSGVFGGGTKLTVL ; what Kd value has been reported? 153

***
Suppose we examine the binder D038 (antibody, V domains shown) VH: EVQLVQSGAEVKKPGESLKISCKGSGYSFTSYWIAWVRQMPGKGLEWMGIIYPGDSDTRYSPSFQGQVTISADKSISTAYLQWSSLKASDTAMYYCARQGYSYGYVDYWGQGTLVTVSS VL: NFMLTQPHSVSESPGKTVTISCTRSSGSIASNYVQWYQQRPGSAPTTVIYEDNQRPSGVPDRFSGSIDSSSNSASLTISGLKTEDEADYYCQSYDSSNWVFGGGTKLTVL ; what Kd value has been reported? 306
